assay: Viability qHTS for inhibitors of the SERCaMP assay screened against the NCATS CANVASS Library (AID 1347400); details: SH-SY5Y SERCaMP cells viability, CellTiter-Glo, 48 h; series mostly up to 92.2 µM; also: nearly all actives have a fitted effect of over 70% in size
Records with an inconclusive call do not appear. Activity calls are given as the source filed them. Calls follow the shape of the dose curve; as a rule, active = well fitted cell-killing curve with a large enough effect; inconclusive = small, poorly fitted or top-dose-only effect; inactive = flat fitted curve, though single readings scatter.
Your response should consist of one outcome taken from t for active, f for inactive

Below are worked cases with known answers.
C=C1C(=O)C[C@H]2C[C@@H]1[C@]2(C)CCC=C(C)C; f
C[C@]12CC[C@]3(C1)[C@H](CC2=O)CC(OC(=O)c1ccccc1)[C@H]1[C@@](CO)(C(=O)O)CCC[C@@]13C (stereo partly drawn); f
C=C(NC(=O)c1csc(-c2nc3c(cc2O)-c2nc(cs2)C(=O)NC(C(C)O)C(=O)N/C(=C(\C)O)c2nc(cs2)C(=O)NC2c4nc(cs4)C(=O)NC(COC(=O)c4c5c6c(cccc6n4O)COC(=O)[C@@H](OC4C[C@](C)(O)[C@H](N(C)C)[C@H](C)O4)C2OC5)c2nc-3cs2)n1)C(N)=O (stereo partly drawn); f
C=C1C[C@@]23C=CC(=O)[C@@](C)(CCC(=O)Nc4c(O)ccc(C(=O)O)c4O)C2C[C@@H]1C(O)C3 (stereo partly drawn); f
CN1C(=O)[C@]23SS[C@@]1(C)C(=O)N2[C@H]1Nc2ccccc2[C@]1(c1c[nH]c2ccccc12)[C@@H]3O; t
COc1cc(O)c2c3c(c(O)cc(C)c13)C(=O)OC2; f

Attention now shifts to the item below.
[Q] Could you please tell me the result logged for O=Cc1ccc2n1C[C@@]1(C[C@H](O)[C@@H](CO)O1)OC2 in this assay?
[A] f

* * *

assay: SDT Cancer Cell Toxicity qHTS against the NCATS CANVASS Library (AID 1347365); details: SDT dog glioma viability, ATP luminescence, 72 h; series mostly up to 46.1 µM; also: nearly all actives have a fitted effect of over 60% in size
Results filed as inconclusive are left out. The source made the active and inactive calls. Calls come from the whole dose curve; as a rule, active = well fitted cell-killing curve with a large enough effect; inconclusive = small, poorly fitted or top-dose-only effect; inactive = flat fitted curve, though single readings scatter.
Your response should consist of one outcome taken from active, inactive

[Q] Could you please tell me the result logged for C=C(C)C(=O)O[C@H]1C[C@H](C)[C@@H](OC(C)=O)CC[C@@]2(C)O[C@@H]2[C@H]2OC(=O)C(COC(C)=O)=C12 in this assay?
[A] active

[Q] Could you please tell me the result logged for Oc1ccc([C@H]2Oc3ccc(/C=C/c4cc(O)cc(O)c4)cc3C2c2cc(O)cc(O)c2)cc1 (some centres undefined) in this assay?
[A] inactive

[Q] Could you please tell me the result logged for O=Cc1ccc2n1C[C@@]1(C[C@H](O)[C@H](O)CO1)OC2 in this assay?
[A] inactive

* * *

experiment: qHTS for activators of Nrf2/ARE signaling pathway screened against the NCATS CANVASS Library (AID 1347391); settings: ARE-bla HepG2, beta-lactamase reporter, 16 h; series mostly up to 46.1 µM; also: nearly all actives have a fitted effect of over 60% in size
Results filed as inconclusive are left out. The source made the active and inactive calls. Calls come from the whole dose curve; as a rule, active = well fitted activation curve with a large enough effect; inconclusive = small, poorly fitted or top-dose-only effect; inactive = no such curve, though single readings can be large or run the other way.
Your response should consist of one outcome taken from active, inactive

Below are worked cases with known answers.
O=c1cc(-c2ccc(O)cc2)oc2c([C@@H]3OC(CO)[C@H](O)[C@@H](O)[C@H]3O)c(O)cc(O)c12 (some centres undefined); inactive
C/C1=C\CC(=O)/C=C/C=C\c2csc(n2)[C@@H](C)NC(=O)C[C@@](S)([C@@H](C)C(=O)O)CC1; active
CCCCCCCCCCCCCCCC(=O)OC/C=C(\C)CCCC(C)CC(C)C(C)C (centres undefined); inactive
CN1CC[C@]2(c3cccc4c3N[C@@H]3N(C)CC[C@]43[C@@]34CCN(C)[C@@H]3Nc3c([C@]56CCN(C)[C@H]5Nc5ccccc56)cccc34)c3ccccc3N[C@H]12; inactive

[Q] Could you please tell me the result logged for OCc1ccc2ocnc2c1 in this assay?
[A] inactive

[Q] Could you please tell me the result logged for CC1(C)CC[C@]2(C(=O)O)CC[C@]3(C)C(=CC[C@@H]4[C@@]5(C)C[C@@H](O)[C@H](O)C(C)(C)[C@@H]5CC[C@]43C)[C@@H]2C1 in this assay?
[A] inactive

[Q] Could you please tell me the result logged for O=Cc1ccc2n1C[C@@]1(C[C@H](O)[C@@H](CO)O1)OC2 in this assay?
[A] inactive

[Q] Could you please tell me the result logged for C=C(C)[C@@H]1CC[C@]2(C)CC[C@]3(C)[C@H](CC[C@@H]4[C@@]5(C)CC[C@H](O)C(C)(C)[C@@H]5CC[C@]43C)[C@@H]12 in this assay?
[A] inactive

[Q] Could you please tell me the result logged for C=C1C[C@@]23C=CC(=O)[C@@](C)(CCCC(C)C(=O)O)[C@@H]2C[C@@H]1CC3 (some centres undefined) in this assay?
[A] active

From: PubChem BioAssay (NCATS)
